Test system: Human alphaherpesvirus 3
experimental-protocol: Antiviral activity against TK-defecient VZV 07-1 infected in HEL cells assessed as reduction in plaque formation after 5 days
Assay type: functional, organism-based
condition-details: Human alphaherpesvirus 3, 07-1, HEL, 120 h
Listing of entries alongside the reported pEC50.
Scale explanation: pEC50 corresponds to minus log10 of a concentration expressed in moles per litre.

compound: CCc1cn([C@@H]2C[C@H](O)[C@@H](CO)O2)c(=O)c[n+]1[O-]
pEC50: 3.76
//
compound: Cc1cn([C@H]2C[C@H](O)[C@@H](CO)O2)c(=O)c[n+]1[O-]
pEC50: 5.16
//
compound: O=c1[nH]c(=O)n([C@H]2C[C@H](O)[C@@H](CO)O2)cc1/C=C/Br [BRIVUDINE]
pEC50: 5.18

Kindly review the next compound as well.
Record request: pEC50 value, item "CCc1cn([C@H]2C[C@H](O)[C@@H](CO)O2)c(=O)c[n+]1[O-]"
3.86

====

Tested on: Enterococcus faecium
experimental-protocol: Antibacterial activity against Streptococcus faecium
Type: functional, organism-based
quantity-name: EC50 (µM)
Report as a plain number; the unit µM is understood.

Record request: EC50 value, item "O=c1c[n+]([O-])cc[nH]1"
8

====

experimental-protocol: Cytotoxicity against HEL cells assessed as reduction in cell viability after 3 days by coulter counting method
Format: cell-based
condition-details: human
Listing of entries alongside the reported CC50 at 72 h.

Completed entries (count: 2):
smiles-representation: CCc1cn([C@@H]2C[C@H](O)[C@@H](CO)O2)c(=O)c[n+]1[O-]
CC50 at 72 h: > 390 µM

smiles-representation: Nc1ccn(C[C@@H](CO)OCP(=O)(O)O)c(=O)n1
CC50 at 72 h: > 358 µM

Record request: CC50 at 72 h value, item "O=c1[nH]c(=O)n([C@H]2C[C@H](O)[C@@H](CO)O2)cc1/C=C/Br"
> 300 µM

Record request: CC50 at 72 h value, item "O=c1c[n+]([O-])ccn1[C@@H]1C[C@H](O)[C@@H](CO)O1"
> 438 µM

Record request: CC50 at 72 h value, item "Cc1cn([C@H]2C[C@H](O)[C@@H](CO)O2)c(=O)c[n+]1[O-]"
> 412 µM

Record request: CC50 at 72 h value, item "Nc1nc2c(ncn2COCCO)c(=O)[nH]1"
> 444 µM

Record request: CC50 at 72 h value, item "Cc1cn([C@@H]2C[C@H](O)[C@@H](CO)O2)c(=O)c[n+]1[O-]"
> 412 µM

Record request: CC50 at 72 h value, item "CCc1cn([C@H]2C[C@H](O)[C@@H](CO)O2)c(=O)c[n+]1[O-]"
> 390 µM

Record request: CC50 at 72 h value, item "O=c1c[n+]([O-])ccn1[C@H]1C[C@H](O)[C@@H](CO)O1"
> 438 µM

====

Listing of entries alongside the reported EC50.
Tested on: Human betaherpesvirus 5
experimental-protocol: Antiviral activity against HCMV Davis infected in HEL cells assessed as reduction in virus-induced cytopathic effect after 6 to 7 days
Format: functional, organism-based
condition-details: Human betaherpesvirus 5, Davis

compound: O=c1c[n+]([O-])ccn1[C@H]1C[C@H](O)[C@@H](CO)O1
assay-target: Human betaherpesvirus 5
EC50: > 438 µM

compound: Cc1cn([C@@H]2C[C@H](O)[C@@H](CO)O2)c(=O)c[n+]1[O-]
assay-target: Human betaherpesvirus 5
EC50: > 412 µM

compound: Cc1cn([C@H]2C[C@H](O)[C@@H](CO)O2)c(=O)c[n+]1[O-]
assay-target: Human betaherpesvirus 5
EC50: > 412 µM

Param readout = EC50; param system = Human betaherpesvirus 5; param query = "CCc1cn([C@H]2C[C@H](O)[C@@H](CO)O2)c(=O)c[n+]1[O-]" ; response: value
> 78 µM

Param readout = EC50; param system = Human betaherpesvirus 5; param query = "O=c1c[n+]([O-])ccn1[C@@H]1C[C@H](O)[C@@H](CO)O1" ; response: value
> 438 µM

Param readout = EC50; param system = Human betaherpesvirus 5; param query = "CCc1cn([C@@H]2C[C@H](O)[C@@H](CO)O2)c(=O)c[n+]1[O-]" ; response: value
> 78 µM

Param readout = EC50; param system = Human betaherpesvirus 5; param query = Nc1ccn(C[C@@H](CO)OCP(=O)(O)O)c(=O)n1 [CIDOFOVIR] ; response: value
1.58 µM
